Examples of molecules with documented melting point follow.

molecule="CC(=O)OCC(OC(C)=O)C(OC(C)=O)C(OC(C)=O)C(OC(C)=O)C(N)=O (centres undefined)" result="187 to 188 °C"
molecule="CC1(NC(=O)c2ccccc2)COCOC1=O (racemic)" result="154 to 159 °C"
molecule="O=C(OC1OC(COCc2ccccc2)C(OCc2ccccc2)C1OCc1ccccc1)c1ccc([N+](=O)[O-])cc1 (centres undefined)" result="92 to 94 °C"

Exam item: Look up and state reported melting point for `O=Cc1c(Br)sc2ccc(Cl)cc12`
Marked response: 139 to 140 °C

###

quantity kind: melting point (°C)

// below: answered compounds
compound="ClC1OCCOC1Cl (stereo unspecified)" unit=°C result_number=30
compound=Cc1oc(S(=O)(=O)N2CCCC2)cc1C(=O)O unit=°C result_number=185

a: O=[N+]([O-])CC(Nc1ccccc1)c1cccc(C(C[N+](=O)[O-])Nc2ccccc2)c1 (stereo unspecified)
b: COC(=O)C1C2CC3c4[nH]c5ccccc5c4CCN3CC2CC(OC(=O)c2cc(OC)c(OC)c(OC)c2)C1OC (stereo unspecified)
c: Oc1c(Cl)cc(Cl)c(Cl)c1Cl
Exam item: Your job: order these 3 records by melting point, ascending. Please, when replying, give the labels in the order that was requested.
Marked response: c, a, b
(c: 70 °C, a: 127 °C, b: 230 °C)

A: COc1ccc(C(=O)O)cc1OCc1ccccc1
B: CC(=C(C#N)C#N)c1ccc(Cl)cc1
Exam item: Of A and B , which shows the smaller melting point value? Answer by quoting the chosen item's label.
Marked response: B

a: CC(C)[Si](Cl)(Cl)Cl
b: Cc1cc(N=Nc2ccc(N=Nc3ccccc3)cc2)c(C(C)C)cc1N=Nc1ccc(N=Nc2ccccc2)cc1
Exam item: Select the item with the higher value of melting point from the options a and b listed. Answer by quoting the chosen item's label.
Marked response: b

###

quantity kind: melting point (°C)

// below: answered compounds
compound=ON=Cc1c[nH]cn1 quantity_kind="melting point" result_number=182
compound=c1ccc(-n2nc3ccccc3n2)cc1 quantity_kind="melting point" result_number=107

a: CCCCCCc1ccc2ccccc2c1
b: O=C(O)c1ccc(-c2csnn2)cc1
c: COc1c(Br)ccc2c1C(=O)C2
Exam item: hey, can you rank those compounds up there by melting point? biggest number first please Please, when replying, give the labels in the order that was requested.
Marked response: b, c, a

A: COc1ccc(-c2nnc3n2NC(c2ccc(O)c(OC)c2)S3)cc1 (stereo unspecified)
B: COc1cccc(F)c1
Exam item: Select the item with the higher value of melting point from the options A and B listed. Answer by quoting the chosen item's label.
Marked response: A
(A: 173 °C, B: -35 °C)

P: CCCCCCN(CCCCCC)C(=O)COC(=O)c1ccccc1
Q: CCCCCCCCNC(C)C(O)c1ccc(SC(C)C)cc1 (stereo unspecified)
Exam item: Of P and Q , which shows the smaller melting point value? Answer by quoting the chosen item's label.
Marked response: Q
(Q: 62.5 °C, P: 162 °C)

###

Examples of compounds with documented melting point follow.

// below: answered compounds
compound=COc1cccc2c1ccn2C quantity_kind="melting point" result="89 to 91 °C"
compound="O=C(O)C1CCC(c2ccccc2)CC1C(=O)O (centres undefined)" quantity_kind="melting point" result="185 to 190 °C"
compound="CCCCC(C=O)NC(=O)C(CC(C)C)NC(=O)OCc1ccccc1 (centres undefined)" quantity_kind="melting point" result="60 to 75 °C"

Exam item: Look up and state reported melting point for `Cc1onc(-c2ccccc2)c1CO`
Marked response: 81 to 82 °C

Exam item: Look up and state reported melting point for `CC(=O)OC[C@@H](OC(C)=O)[C@@H](OC(C)=O)[C@H](OC(C)=O)[C@@H](OC(C)=O)C(=O)O`
Marked response: 109 to 111 °C

Exam item: Look up and state reported melting point for `Cc1oc(S(=O)(=O)N2CCCCC2)cc1C(=O)O`
Marked response: 194 to 195 °C

Source listed as a melting point compilation (Tetko et al.).
